Listing of entries alongside the reported Z-AUC.
PROCEDURE_SUMMARY: qHTS drug screen for cell cycle checkpoint inhibitors in PARPi-resistant BRCA-mutant ovarian cancer cell lines. (AID 1963452)
TEST_SETTINGS: PEO1/OlaR viability, CellTiter-Glo luminescence, 96 h; measured here: PEO4 Z-AUC; stronger effect = lower value
Hey, just send me the number, nothing else.

# count of solved cases: 5
MOLECULE_SMILES	Z-AUC
O=C(CCCc1ccc2cccnc2n1)NCc1cc(-c2ccc(F)c(C(F)(F)F)c2)no1	-0.394
COc1cc(OCc2cccc(-c3ccccc3)c2C)cc(OC)c1CN1CCCC[C@H]1C(=O)O	-0.37
COC(=O)/C=C/C(=O)OC	0.675
COc1cc([C@@H]2c3cc4c(cc3[C@@H](O[C@@H]3O[C@@H]5CO[C@@H](c6cccs6)O[C@H]5[C@H](O)[C@H]3O)[C@H]3COC(=O)[C@H]23)OCO4)cc(OC)c1O	-2.18
CN1CCCN(C(=O)c2cccc(-c3ccc(/C=C4/C(=O)Nc5ccc(Cl)cc54)o3)c2)CC1	-0.635

### Prompt Can you look up the measured Z-AUC of O=C(Nc1ccc(OC(F)(F)Cl)cc1)c1cnc(N2CC[C@@H](O)C2)c(-c2ccn[nH]2)c1 for me?
### Response -0.386

### Prompt Look at this compound and give its reported Z-AUC. CONC(=O)Nc1ccc(-c2sc3c(c2CN(C)Cc2ccccc2)c(=O)n(-c2ccccc2)c(=O)n3Cc2c(F)cccc2F)cc1
### Response -0.917

### Prompt Item under review: Cc1ccc(S(=O)(=O)Nc2cc(C(F)(F)F)ccc2C(=O)Nc2nc(-c3ccccc3)cs2)cc1 . Reported Z-AUC?
### Response -0.358

----------
MEASURED_ON: Dual specificity protein kinase CLK4 (Homo sapiens)
PROCEDURE_SUMMARY: qHTS Assay for Inhibitors of CDC-like Kinase 4 (ADP-FP Assay) (AID 1795);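 note: recombinant human CLK4 phosphorylating RS repeat peptide at 1 µM ATP; nearly all actives have a fitted effect of over 60% in size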
TEST_SETTINGS: Transcreener ADP fluorescence polarization; series mostly up to 50 µM
Procedure: NIH Molecular Libraries Probe Production Centers Network [MLPCN] NIH Chemical Genomics Center [NCGC] MLPCN Grant: 1R03MH084827-01 Assay Submitter (PI): Tom Misteli NCGC Assay Overview: Clk4 (Invitrogen cat # PV3839) was assayed using ATP and the RS repeat peptide (AnaSpec cat # 61722) as substrates using Transcreener (trade mark), a competitive fluorescence polarization (FP) assay. […] The amount of ADP produced can then be calculated using a calibration curve. […]
Records with an inconclusive call do not appear. The source made the active and inactive calls. Calls follow the shape of the dose curve; as a rule, active = well fitted inhibition curve with a large enough effect; inconclusive = small, poorly fitted or top-dose-only effect; inactive = flat fitted curve, though single readings scatter.
PROPERTY_MEASURED: outcome

MOLECULE_SMILES	MEASURED_ON	PROPERTY_MEASURED	ASSAY_VALUE
COc1ccc(-n2c(=O)c(-c3ccc(Cl)cc3)nc3cnc(N4CCNCC4)nc32)cc1	Dual specificity protein kinase CLK4 (Homo sapiens)	outcome	inactive
CN(C)c1ncc2nc(-c3ccccc3)c(=O)n(C[C@H]3CCCO3)c2n1	Dual specificity protein kinase CLK4 (Homo sapiens)	outcome	inactive
O=c1c(-c2ccc(Cl)cc2)nc2cnc(N3CCOCC3)nc2n1C[C@H]1CCCO1	Dual specificity protein kinase CLK4 (Homo sapiens)	outcome	inactive
COc1ccccc1-c1cncnc1NCCNC(C)=O	Dual specificity protein kinase CLK4 (Homo sapiens)	outcome	inactive
COc1ccc(-c2nc3cnc(Oc4cccc(Cl)c4)nc3n(CCC#N)c2=O)cc1	Dual specificity protein kinase CLK4 (Homo sapiens)	outcome	inactive

### Prompt API: value(readout=outcome, system=Dual specificity protein kinase CLK4 (Homo sapiens)) for record Cn1c(=O)c(-c2ccc(Cl)cc2)nc2cnc(Nc3ccccc3)nc21
### Response inactive

### Prompt Find outcome (Dual specificity protein kinase CLK4 (Homo sapiens)) for the entry CN(C)c1ncc2nc(-c3ccccc3)c(=O)n(Cc3ccc(F)cc3)c2n1
### Response inactive

### Prompt outcome of COCCNc1ncncc1-c1c(C)noc1C on Dual specificity protein kinase CLK4 (Homo sapiens)?
### Response inactive
